// GI50 collected for HS 578T breast

Below, 3 molecules whose answers are already recorded.
{"columns": ["molecule", "targetUnderTest", "GI50"],
 "data": [
  ["C=CCSSC1N=CNc2nc[nH]c21 (stereo not given)", "HS 578T breast", "12.8 µM"],
  ["COC(=O)/C=C1/SC(=Nc2ccc(C(F)(F)F)cc2)N(CCc2c[nH]c3ccc(O)cc23)C1=O", "HS 578T breast", "1.87 µM"],
  ["CC[C@H](Nc1cc(C)nc(N)n1)c1nc2cccc(NCc3ccc(C(=O)NO)cc3)c2c(=O)n1-c1ccccc1", "HS 578T breast", "2.36 µM"]
]}

Here COc1ccc2c(c1)SC1=NNC(Cl)C(=O)N12 (stereo not given) was tested on HS 578T breast, and its GI50 came to 40.4 µM

Here CC(=O)N1CCN([C@H]2CCC[C@@H](NC(=O)c3cc4c(F)ccc(C)c4[nH]3)C2)CC1 was tested on HS 578T breast, and its GI50 came to 4.66 µM

* * *

Test system: MDA-MB-435
Outcomes you can answer with include only these: active, inactive

Hello, I am checking results. What call was entered for COC(=O)c1ccc2[nH]c(O)c(C(=Nc3ccc(N(C)C(=O)CN4CCN(C)CC4)cc3)c3ccc(OC)cc3)c2c1 ?
inactive

Hello, I am checking results. What call was entered for CC/C(=C(\c1ccc(Cl)cc1)c1ccc(OCCN2CCCCC2)cc1)c1ccc(O)cc1 ?
inactive

Hello, I am checking results. What call was entered for CC#CC#Cc1cccc(=O)o1 ?
inactive

Hello, I am checking results. What call was entered for Clc1nc(Cl)c2ncn(CC#CCn3cnc4c(Cl)nc(Cl)nc43)c2n1 ?
inactive

Hello, I am checking results. What call was entered for O=C(/C=C/c1cccc(O)c1)c1cccc(-n2cc(-c3ccc(Cl)cc3)[nH]c2=O)c1 ?
inactive

* * *

System: HCT-116 colon
experimentSummary: NCI tumour cell line growth inhibition, 48 h
observedProperty: TGI

Below, 2 molecules whose answers are already recorded.
{"columns": ["molecule", "targetUnderTest", "observedProperty", "result"],
 "data": [
  ["Brc1ccc2c(C3CN[C@@H](c4c[nH]c5cc(Br)ccc45)CN3)c[nH]c2c1 (stereo partly specified)", "HCT-116 colon", "TGI", "3.55 µM"],
  ["N#CC(C#N)=C(C(C#N)C#N)C(C#N)C#N", "HCT-116 colon", "TGI", "> 100 µM"]
]}

The measured TGI associated with CC(C1CCCC1=O)C1CCCC1=O (stereo unspecified) reads > 100 µM

The measured TGI associated with CCOC(=O)C1=CC(C)(C(=O)OCC)Nc2c(nc(SC)[nH]c2=O)N1 (stereo unspecified) reads > 10 µM

The measured TGI associated with CC(=O)Nc1cccc(C#Cc2cncnc2Nc2ccc(OCc3cccc(F)c3)c(Cl)c2)n1 reads > 25 µM

The measured TGI associated with COC(=O)C1SC(N(C)c2ccccc2)=NC12c1ccccc1Nc1ccccc12 (stereo unspecified) reads 53.5 µM

* * *

Tested on: HS 578T breast
experimentSummary: NCI tumour cell line growth inhibition, 48 h; in the data active = GI50 below about 0.43 µM; inactive = the rest
Outcomes you can answer with include only these: 1.0 = active, 0.0 = inactive

Known results for compounds:
{"columns": ["smi", "classification"],
 "data": [
  ["C/C(Cc1ccc(Cl)cc1)=C(\\c1ccc(OCCN2CCCCCC2)cc1)c1ccc(OC(=O)c2ccccc2)cc1", 0.0],
  ["CC(=O)O[C@H]1C(=O)[C@@]2(C)[C@H]([C@H](OC(=O)c3ccccc3)[C@]3(O)C[C@H](OC(=O)[C@H](OC(=O)OC[C@@H]4COC(C)(C)O4)[C@@H](NC(=O)c4ccccc4)c4ccccc4)C(C)=C1C3(C)C)[C@]1(OC(C)=O)CO[C@@H]1C[C@@H]2O", 1.0]
]}

Moving on to another compound below.
Hello, I am checking results. What call was entered for O=C(/C=C/c1cccc(O)c1)c1cccc(-n2cc(-c3ccc(Cl)cc3)[nH]c2=O)c1 ?
0.0

* * *

System: SK-MEL-2 melanoma
experimentSummary: NCI tumour cell line growth inhibition, 48 h
Listed here: items and their measured TGI.

Below, 2 compounds whose answers are already recorded.
{"columns": ["smi", "result"],
 "data": [
  ["CC(=O)c1ccc(NC(=O)/C(CC(=O)/C=C/c2ccccc2)=N/NC(N)=S)cc1", "> 100 µM"],
  ["CCOC(=O)Cc1cc(=O)oc2cc(O)ccc12", "> 100 µM"]
]}

Here CC(=O)N1CCN([C@H]2CCC[C@@H](NC(=O)c3cc4c(F)ccc(C)c4[nH]3)C2)CC1 was tested on SK-MEL-2 melanoma, and its TGI came to > 100 µM

Here CN(C)CCCNc1c2c(nc3ccc(Cl)cc13)CCCC2 was tested on SK-MEL-2 melanoma, and its TGI came to 34.5 µM

Here CSC(N)=Nc1cccc2ccccc12 was tested on SK-MEL-2 melanoma, and its TGI came to > 10 µM

* * *

Test system: SK-MEL-28 melanoma
Outcomes you can answer with include only these: YES (active), NO (inactive)

Known results for compounds:
{"columns": ["compound", "classification"],
 "data": [
  ["Nc1nonc1-c1nc2cnccc2n1C1CCCCC1", "NO"],
  ["CCOC(=O)c1ccc2c(c1)c1c(C)c3cnccc3c(C)c1n2C", "YES"]
]}

Hello, I am checking results. What call was entered for CC(=O)Nc1cccc(C#Cc2cncnc2Nc2ccc(OCc3cccc(F)c3)c(Cl)c2)n1 ?
NO

Hello, I am checking results. What call was entered for COC(=O)c1ccc2[nH]c(O)c(C(=Nc3ccc(N(C)C(=O)CN4CCN(C)CC4)cc3)c3ccc(OC)cc3)c2c1 ?
NO

Hello, I am checking results. What call was entered for COc1ccc(C2C(C#N)=C(N)Oc3c2sc2c(C)cccc32)cc1 (stereo unspecified) ?
NO

Hello, I am checking results. What call was entered for CCC[CH2][Sn]1([CH2]CCC)[O]CC(c2ccccn2)C[O]1 ?
NO

* * *

Listed here: items and their measured TGI.
Tested on: LOX IMVI melanoma
experimentSummary: NCI tumour cell line growth inhibition, 48 h

Below, 4 molecules whose answers are already recorded.
{"columns": ["molecule", "TGI"],
 "data": [
  ["c1ccc(N2CCN(CN3CCN(c4ccccc4)C3)C2)cc1", "> 100 µM"],
  ["COc1ccc(C2=Nn3c(nnc3-c3ccccc3)S/C2=C\\c2ccc(-c3ccc([N+](=O)[O-])cc3)o2)cc1", "> 100 µM"],
  ["O=c1[nH]cnc2[nH]cc(CN3CCCCC3)c12", "> 100 µM"],
  ["C=CC(=O)N1CC2(CCC(n3nc(-c4ccc(Oc5ccccc5)cc4)c4c(N)ncnc43)CC2)C1", "0.847 µM"]
]}

The measured TGI associated with COc1cc(C2C(C(=O)O)=C(CO)Oc3cc4c(cc32)OCO4)cc(OC)c1OC (stereo not given) reads > 100 µM

* * *

System: SR leukemia
experimentSummary: NCI tumour cell line growth inhibition, 48 h
observedProperty: TGI

Below, 2 compounds whose answers are already recorded.
{"columns": ["compound", "targetUnderTest", "TGI"],
 "data": [
  ["COC(=O)C(C(=O)C(=O)Nc1nc(=S)[nH][nH]1)c1csc(N)n1 (centres undefined)", "SR leukemia", "> 100 µM"],
  ["CCOC(=O)C1=NC(c2ccccc2)(c2ccccc2)OC1=C(Cl)Cl", "SR leukemia", "> 100 µM"]
]}

The measured TGI associated with CCOC(=O)Cc1cc(=O)oc2cc(O)ccc12 reads > 100 µM

* * *

Listed here: items and their measured GI50.
Tested on: DU-145 prostate

{"columns": ["smi", "GI50"],
 "data": [
  ["COC(=O)/C=C1/SC(=Nc2ccc(C(F)(F)F)cc2)N(CCc2c[nH]c3ccc(O)cc23)C1=O", "2.21 µM"],
  ["O=C(Nc1ccc(OCc2nnc(-c3ccc(Cl)cc3)o2)c(F)c1)Nc1ccc(Cl)c(Cl)c1", "5.07 µM"],
  ["O=C(/C=C/c1cccc(O)c1)c1cccc(-n2cc(-c3ccc(Cl)cc3)[nH]c2=O)c1", "1.68 µM"]
]}

Here Cc1ccc2cc3c(N)c4c(C)ccc(C)c4nc3nc2c1 was tested on DU-145 prostate, and its GI50 came to 5.82 µM

Here CC/C(=C(\c1ccc(Cl)cc1)c1ccc(OCCN2CCCCC2)cc1)c1ccc(O)cc1 was tested on DU-145 prostate, and its GI50 came to 1.87 µM

Here COc1ccc(/C=C/C(=O)c2ccc(NC(=O)CSc3nnc(-c4ccc(OC)c(OC)c4)n3-c3ccccc3)cc2)cc1 was tested on DU-145 prostate, and its GI50 came to 3.21 µM

Here Cc1nc2ccccn2c1NC(=O)NNC(=S)Nc1ccc(Cl)cc1 was tested on DU-145 prostate, and its GI50 came to > 100 µM

Here CCSc1nc2[nH]c(=S)[nH]c(=S)c2c(-c2ccc(OC)c(OC)c2)c1C#N was tested on DU-145 prostate, and its GI50 came to 21.8 µM

Here Clc1nc(Cl)c2ncn(CC#CCn3cnc4c(Cl)nc(Cl)nc43)c2n1 was tested on DU-145 prostate, and its GI50 came to 1.78 µM
